Recorded cGAS 100 nM (averaged IP-10 level relative to ISD70 condition), one value per entry.
Molecular target: cGAS (Homo sapiens)
Sequence (Q8N884 whole entry): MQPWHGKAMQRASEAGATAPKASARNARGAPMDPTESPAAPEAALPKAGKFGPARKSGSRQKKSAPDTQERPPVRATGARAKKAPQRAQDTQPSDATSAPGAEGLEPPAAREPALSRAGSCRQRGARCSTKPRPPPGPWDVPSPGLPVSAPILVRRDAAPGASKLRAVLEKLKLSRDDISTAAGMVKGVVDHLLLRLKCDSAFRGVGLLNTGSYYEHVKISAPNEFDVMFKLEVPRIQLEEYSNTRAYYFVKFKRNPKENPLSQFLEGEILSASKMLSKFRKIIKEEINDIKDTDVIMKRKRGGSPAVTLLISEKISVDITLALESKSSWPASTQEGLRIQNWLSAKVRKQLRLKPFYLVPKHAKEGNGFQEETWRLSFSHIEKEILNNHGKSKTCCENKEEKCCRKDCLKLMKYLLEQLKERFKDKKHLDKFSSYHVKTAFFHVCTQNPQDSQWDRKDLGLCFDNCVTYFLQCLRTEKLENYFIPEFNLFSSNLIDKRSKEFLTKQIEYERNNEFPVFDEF
Assay: ISD70-driven IP-10 (and IFN-β) production in THP-1 cells, ELISA
Type: cell-based
Set-up: endogenous in cells; host or cells: THP-1 (undifferentiated)
Conditions: ASO 100 nM; relative to ISD70 only, given as fraction
Experimental: The ability of an oligonucleotide to inhibit cGAS activity can, for example, be analysed by incubating cells which express cGAS with an oligonucleotide, then stimulating said cells with a cGAS agonist (e.g., 70-bp interferon stimulating DNA or ISD70; 45-bp interferon stimulating DNA or ISD45), and analysing the overall cGAS response in the cell population, or analysing the proportion of cells having cGAS-positive activity after a defined period of time. […]
Quick one: just the number, no unit, thanks!

Answered examples (3):
Macromolecule Sequence	Experimental Result
GCAGGCTCAGTGATGT (antisense; LNA-modified, pattern not given here) [CTNN2B-1642 LNA V1]	0.458
GATAGCACCTTCAGCA (antisense; LNA-modified, pattern not given here) [CTNN2B-1294 LNA KL]	0.436
TCGTGGGGTCCTTTTC (antisense; LNA-modified, pattern not given here) [HPRT LNA-660 V1]	0.729

Turning to the following sequence.
// field: cGAS 100 nM (averaged IP-10 level relative to ISD70 condition); key: CCAACACTTCGTGGGG (antisense; LNA-modified, pattern not given here) [HPRT LNA-668 V1] ; value = 0.842

---

Biological target: human TLR9 (Homo sapiens, UniProt Q9NR96)
Construct: HA; host or cells: 293XL-hTLR9-HA (HEK293)
Sequence (Q9NR96 26-1032): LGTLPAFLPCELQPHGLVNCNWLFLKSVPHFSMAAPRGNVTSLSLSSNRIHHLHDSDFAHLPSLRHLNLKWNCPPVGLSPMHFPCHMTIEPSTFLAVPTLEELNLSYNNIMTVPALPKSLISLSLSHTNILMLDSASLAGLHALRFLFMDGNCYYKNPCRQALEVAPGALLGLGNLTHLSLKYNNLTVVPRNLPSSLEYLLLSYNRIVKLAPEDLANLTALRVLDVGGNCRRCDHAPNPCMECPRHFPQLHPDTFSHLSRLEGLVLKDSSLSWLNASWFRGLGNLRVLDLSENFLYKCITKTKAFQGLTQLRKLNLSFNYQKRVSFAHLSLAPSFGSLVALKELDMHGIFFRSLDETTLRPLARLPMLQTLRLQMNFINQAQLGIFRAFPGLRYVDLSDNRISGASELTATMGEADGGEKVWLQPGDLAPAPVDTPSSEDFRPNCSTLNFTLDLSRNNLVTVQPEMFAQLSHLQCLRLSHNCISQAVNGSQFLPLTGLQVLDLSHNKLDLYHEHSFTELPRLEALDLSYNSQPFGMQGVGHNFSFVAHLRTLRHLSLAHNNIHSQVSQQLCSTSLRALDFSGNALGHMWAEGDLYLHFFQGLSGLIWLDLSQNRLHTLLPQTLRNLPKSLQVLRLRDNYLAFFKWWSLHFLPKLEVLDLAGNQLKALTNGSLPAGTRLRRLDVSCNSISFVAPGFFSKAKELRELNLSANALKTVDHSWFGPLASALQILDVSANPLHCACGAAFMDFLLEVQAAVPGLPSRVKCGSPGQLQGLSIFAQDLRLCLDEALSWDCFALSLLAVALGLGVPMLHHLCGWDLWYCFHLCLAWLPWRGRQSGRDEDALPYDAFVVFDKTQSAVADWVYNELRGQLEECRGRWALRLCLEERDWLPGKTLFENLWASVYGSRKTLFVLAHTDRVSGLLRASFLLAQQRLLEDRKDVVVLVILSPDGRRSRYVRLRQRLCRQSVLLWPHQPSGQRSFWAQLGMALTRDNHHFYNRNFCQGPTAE
Assay: HEK-TLR9 NF-κB-luciferase reporter, ODN2006 stimulation
Assay type: cell-based
Conditions: ASO 500 nM; relative to ODN2006 only, given as fraction
Quick reference: TLR9 500 nM (averaged NF-κB-Luciferase level relative to ODN2006 condition) of the listed items.
Answer with the value's number alone.

Consider the worked cases shown below.
Macromolecule Sequence	Assayed System	Experimental Result
TCCATACCCAAGGCAT (antisense; LNA-modified, pattern not given here) [CTNN2B-2446 LNA V1]	human TLR9 (Homo sapiens, UniProt Q9NR96)	0.951
GCACACTTCGTACCCA (antisense; LNA-modified, pattern not given here) [CAMSAP1-4915 LNA V1]	human TLR9 (Homo sapiens, UniProt Q9NR96)	0.147
AGGCCCTTCGCACTTC (antisense; LNA-modified, pattern not given here) [EGFR-1225 LNA V1]	human TLR9 (Homo sapiens, UniProt Q9NR96)	0.211
CTTGGCTTCGTGGAGC (antisense; LNA-modified, pattern not given here) [MB21D1-520 LNA V1]	human TLR9 (Homo sapiens, UniProt Q9NR96)	0.371

Entry TTCGTGGGGTCCTTTT (antisense; LNA-modified, pattern not given here) [HPRT LNA-661 V1] ; TLR9 500 nM (averaged NF-κB-Luciferase level relative to ODN2006 condition) = 0.523

The measured TLR9 500 nM (averaged NF-κB-Luciferase level relative to ODN2006 condition) associated with TGATGGCCTCCCATCT (antisense; LNA-modified, pattern not given here) [HPRT LNA-332 V1] reads 0.153

Entry TGCACACTTCGTACCC (antisense; LNA-modified, pattern not given here) [CAMSAP1-4916 LNA V1] ; TLR9 500 nM (averaged NF-κB-Luciferase level relative to ODN2006 condition) = 0.244
